This collection of values is drawn from patent US20220125947A1.

# Max. Activity (fold over background) per entry
- target.or.system: Vg5/Vd2 T cell receptor on SKW3 cells (UniProt A0JD36)
- Sequence (A0JD36 20-115): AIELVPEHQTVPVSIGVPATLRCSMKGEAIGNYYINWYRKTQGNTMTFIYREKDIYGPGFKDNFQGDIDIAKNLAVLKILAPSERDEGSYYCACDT
- experiment: flow cytometry, dose-response binding at 37 C on SKW3 cells expressing Vg5/Vd2
Answer with the value's number alone.

As a guide, the following entries are already answered.
binder | reported.metric | reported.result
VG9B73 (antibody, human IgG1, kappa, V domains shown) VH: EVQLVQSGGGLVKPGGSLRLSCAASGFTFSNYDMNWVRQAPGKGLEWVSSISSSSSYIYYADSVKGRFTISRDNARNSLFLQMSSLRAEDTAVYYCAREIGVTGTTYYQDYGMDVWGQGTTVTVSS VL: EIVMTQSPGTLSLSPGERATLSCRASQSFSSNYLAWYQQKPGQAPRLLIYGASSRATGIPDRFSGSGSGTDFTLTISRLEPEDFALYYCQQYGSSPPFTFGQGTKVEIKR | Max. Activity (fold over background) | 1.79
VG9B143 (antibody, human IgG1, lambda, V domains shown) VH: EVQLVESGGGLVQPGGSLRLSCAASGFTFSTYGMNWVRQAPGKGLEWISYISTSSYTIYYSDSVKGRFTVSRDNAKNSLYLQMNSLRDEDTAVYYCAREGDWWYFDLWGRGTTVTVSS VL: QSALTQPASVSGSPGQSITISCTGTSSDVGGYNYVSWYQQHPGKAPKLMIYEVSNRPSGVSYRFSGSKSGNTASLTISGLQAEDEADYYCSSYTSSSTLVFGGGTKLTVLG | Max. Activity (fold over background) | 1.07

Entry VG9B384 (antibody, human IgG1, lambda, V domains shown) VH: QVQLQESGPALVKPTQTLTLTCTFSGFSLSSSGMCVSWIRQPPGKALEWLTLIDWFDDKYYSTSLKTRLTISKDTSKNQVVLTMTNMDPVDTATYYCARIRGTGAYYYGLDVWGQGTMVTVSS VL: SYELMQPPSVSVSPGQTASITCSGNELGDKYASWYQQQPGQSPVLVIYQDNKRPSGIPERFSGSNSGNTATLTISGTQAMDEADYYCQAWDSSKVVFGGGTKLTVLG : reported Max. Activity (fold over background) = ? 18.7
